Test system: PC-3 prostate
experimental protocol: NCI-60 one-dose screen, 48 h (100 = growth as untreated, 0 = no growth, -100 = all killed)
applied conditions: 10 µM unless noted
Compounds without any hit were thinned out: in the full panel of roughly 83,000, 20% have a hit.
quantity name: growth (%)
Just the number in %, nothing appended.

| compound | growth, % |
| --- | --- |
| COC(=O)OC1C(O[C@H]2C[C@H]3[C@@H]4CC=C5C[C@@H](O)CC[C@]5(C)[C@H]4CC[C@]3(C)[C@H]2[C@H](C)C(=O)CCC(C)C)OCC(O)C1OC1OCC(O)C(O)C1OC(=O)c1ccc(OC)cc1 (stereo partly specified) | -18.8 |
| COc1ccc(C(=O)N2N=C(c3ccc(F)cc3)CC2c2cn(-c3ccccc3)nc2-c2ccccc2)cc1 (stereo unspecified) | 71.6 |
| Cc1cc(O)c2cc3c(O)c(O)ccc3cc2c1 | 97.1 |
| Oc1c(C(Nc2cccc3ccccc23)c2ccccc2)ccc2cccnc12 (stereo unspecified) | 38.1 |
| CCCCCCCCCCCCCC1=NC(C)(C)CN1C(C)C | -37.6 |
| Fc1ccc(-c2nc(-c3ccc(-c4nc5ccc(F)cc5[nH]4)cc3)no2)cc1 | 68.7 |
| CC(C)(C)[Si](C)(C)OC1[C@@H](CNC(N)=O)O[C@@H](n2cnc3c(NC(=O)Nc4ccccc4)ncnc32)[C@H]1O[Si](C)(C)C(C)(C)C (stereo partly specified) | 17 |
| CCCCOC(=O)c1cc(O)c(O)c(O)c1 | 80.4 |

Here is the next item to consider.
Exercise: For the compound CCN(CC)c1ccc(/C=N/N=C(N)N)cc1 , give its measured growth value.
Key: 30.7
